Just for reference, patent US11731967B2 is where these values come from.

# measured target: recombinant PHD-bromodomain module of TRIM33 (Homo sapiens)
# Construct: rows headed: TRIM33 modulating activity; unit not given
# Sequence (Q9UPN9 whole entry): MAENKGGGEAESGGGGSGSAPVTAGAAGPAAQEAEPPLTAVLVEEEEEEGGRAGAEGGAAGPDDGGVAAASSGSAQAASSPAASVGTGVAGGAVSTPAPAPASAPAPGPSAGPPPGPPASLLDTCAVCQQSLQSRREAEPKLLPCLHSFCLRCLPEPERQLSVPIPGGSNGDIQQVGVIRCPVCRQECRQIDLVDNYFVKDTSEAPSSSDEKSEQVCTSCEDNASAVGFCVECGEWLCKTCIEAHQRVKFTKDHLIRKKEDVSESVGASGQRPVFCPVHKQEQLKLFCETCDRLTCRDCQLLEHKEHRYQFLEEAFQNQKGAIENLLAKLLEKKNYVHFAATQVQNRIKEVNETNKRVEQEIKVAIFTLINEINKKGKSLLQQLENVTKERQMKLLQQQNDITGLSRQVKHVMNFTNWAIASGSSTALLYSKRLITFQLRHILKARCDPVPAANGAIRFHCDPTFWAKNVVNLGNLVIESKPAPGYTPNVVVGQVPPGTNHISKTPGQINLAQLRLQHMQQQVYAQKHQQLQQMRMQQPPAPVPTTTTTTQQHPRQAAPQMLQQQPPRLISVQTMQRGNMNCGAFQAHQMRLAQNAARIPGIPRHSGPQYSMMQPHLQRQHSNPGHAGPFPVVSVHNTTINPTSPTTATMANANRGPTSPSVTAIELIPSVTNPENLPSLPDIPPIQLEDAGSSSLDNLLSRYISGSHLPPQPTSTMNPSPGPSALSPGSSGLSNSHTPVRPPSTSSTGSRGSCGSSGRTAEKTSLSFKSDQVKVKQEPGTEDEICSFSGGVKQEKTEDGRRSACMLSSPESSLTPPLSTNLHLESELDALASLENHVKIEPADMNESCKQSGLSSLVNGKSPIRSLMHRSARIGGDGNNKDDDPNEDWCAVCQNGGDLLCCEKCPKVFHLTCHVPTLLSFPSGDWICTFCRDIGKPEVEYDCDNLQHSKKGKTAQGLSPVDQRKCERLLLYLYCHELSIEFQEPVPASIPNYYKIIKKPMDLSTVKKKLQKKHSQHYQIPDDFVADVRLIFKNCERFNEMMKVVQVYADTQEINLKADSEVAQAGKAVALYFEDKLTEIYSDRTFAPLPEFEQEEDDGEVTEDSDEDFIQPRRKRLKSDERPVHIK
# test protocol: AlphaScreen binding assay, TRIM33 with biotinylated H3K9me3K18ac peptide
# condition notes: compounds shown in Table 2a; called TRIM33 IC50 in title of Table 5; unit inferred; read-out: TRIM33 modulating activity
# Excerpt: The IC50 or EC50 of the compound of the present application can be determined by various methods known in the art. For example, the IC50 or EC50 of the compound of the present application can be measured by an AlphaScreen assay, as described herein (see FIG. 1). A compound of the present application can be tested for its TRIM33 and/or TRIM24 activity with AlphaScreen Assay illustrated in FIG. 1. […]
Classify: Condition met when IC50 is strictly less than 100 µM; Condition not met when IC50 is not.

# smiles str, category
data = [
    ("COCCNc1c(-c2nc[nH]c2C)nc2ccc(C(=O)OC)cn12", "Condition met"),
    ("COCCNc1c(-c2nc[nH]c2C)nc2ccc(Br)cn12", "Condition met"),
    ("Brc1ccc2nc(-c3ccc4nccn4c3)c(NCCN3CCOCC3)n2c1", "Condition not met"),
    ("COC(=O)c1ccc2nc(-c3nc[nH]c3C)c(NC3CCCCC3)n2c1", "Condition met"),
    ("CCCOc1ccn2c(C(C)=O)cc(-c3nc4cnccn4c3NCCOC)c2c1", "Condition not met"),
]
